Every entry's value here was drawn from patent US11873298B2.

Exercise: state measured pIC50 for each of the compounds provided.
Molecular target: SCD1 (Homo sapiens)
Construct: host or cells: S. cerevisiae ole1Δ strain (W303 pdr1Δ pdr3Δ background), plasmid pRS316 with TDH3 promoter and CYC1 terminator
Sequence (O00767 1-359): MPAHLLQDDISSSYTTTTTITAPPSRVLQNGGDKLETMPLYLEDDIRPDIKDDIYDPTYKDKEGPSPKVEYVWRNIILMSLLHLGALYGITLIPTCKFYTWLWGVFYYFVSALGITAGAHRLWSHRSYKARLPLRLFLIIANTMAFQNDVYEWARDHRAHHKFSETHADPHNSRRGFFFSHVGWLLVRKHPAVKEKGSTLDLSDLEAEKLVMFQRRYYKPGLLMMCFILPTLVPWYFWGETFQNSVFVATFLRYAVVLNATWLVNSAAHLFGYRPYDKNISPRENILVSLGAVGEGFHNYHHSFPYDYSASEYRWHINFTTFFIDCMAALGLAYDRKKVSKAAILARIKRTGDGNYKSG
Experiment: Growth inhibition of humanized yeast strain expressing SCD1 as sole desaturase
Format: cell-based
Conditions: humanized yeast strain, 40 h
Description: Strain oleΔ (yeast ole1 deletion mutant) was constructed by deleting OLE1 with NAT-MX6 in BY4741, amplifying the deletion cassette from the genomic DNA of the resulting strain with primers flanking the ORF by 1000 bp upstream and downstream, transforming the resulting deletion cassette into W303 pdr1Δ pdr3Δ, and plating transformants on YPD media containing G418 (200 μg/mL) and nourseothricin ([…]) with 0.01% TWEEN®-20 and 0.5 mM oleic and palmitoleic acids. […]
pIC50: −log10 of the molar value.

Recorded pIC50 for CC(C)(C)OC(=O)N1CCN(c2nc(-c3cccc(C4CCOC4)c3)no2)CC1 (centres unmarked) , please? < 4.35

// query pIC50 value for entry CC(C)(C)OC(=O)N1CCN(c2noc(-c3ccc4cnn(C5COC5)c4c3)n2)CC(F)(F)C1 4.82

Quick check: pIC50 of COC1(C2CCN(c3nc(-c4ccc5cnn(C(C)C)c5c4)no3)CC2)COC1 ? < 4.35

Look at this compound and give its reported pIC50. CC(C)(C)OC(=O)N1CCC(c2nc(-c3ccnc(Cl)c3)no2)CC1 < 4.35

Return reported pIC50; argument: COC(=O)N1CCC(c2noc(-c3ccc4cnn(C(CO)CO)c4c3)n2)CC1 < 4.35

Which pIC50 reading was recorded for the compound CC(C)(C)OC(=O)N1CCN(c2noc(-c3ccnc(OC4COC4)c3)n2)CC1 ? < 4.35

GET /values?readout=pIC50&item= COC(=O)N1CCC(c2noc(-c3ccc4cnn(C5COC(C)(C)C5)c4c3)n2)CC1 (centres unmarked) < 4.35

What value of pIC50 has been recorded for this entry: CC(C)n1ncc2ccc(-c3noc(N4CCC(C(CO)CCl)CC4)n3)cc21 (centres unmarked) 4.48

* * *

Please provide measured Emax for the entries that follow.
System: yeast strains expressing the human ApoE4
Assay: Yeast ApoE4 toxicity rescue assay (OD600 growth)
Details: 24 h, read-out: ApoE4 Emax
Number only, in %; omit the unit.

Please report the recorded Emax for Cc1ccc(-c2noc(C3CCN(C(=O)[C@@H]4CC(=O)N(c5ccc(C)c(C)c5)C4)CC3)n2)cc1 . 430

Any idea what its Emax is? The molecule is Cc1ccc(-c2nc(C3CCN(C(=O)[C@H]4CC(=O)N(c5ccc(C)c(C)c5)C4)CC3)no2)cc1 (single isomer, unassigned) 235

# query: Emax of entry COc1ccc(-c2noc(C3CCN(C(=O)COc4cc(O)c5c(c4)OC(C)(C)CC5=O)CC3)n2)cc1OC 436

State the recorded Emax for this entry: CC(C)c1ccc(C(=O)N2CCC(c3noc(-c4cccc(F)c4)n3)CC2)cc1 154

Which measured Emax value corresponds to Cc1ccc(-c2nc(C3CCN(C(=O)C4CC(=O)N(c5ccc(C)c(C)c5)C4)CC3)no2)cc1 (stereo not drawn) ? 133

State the recorded Emax for this entry: COc1ccc(-c2noc(C3CCN(C(=O)/C=C/C(=O)c4ccccc4)CC3)n2)cc1OC 281

I have this molecule here, COc1cccc(-c2noc(C3CCN(C(=O)CNC(=O)c4ccc(C)c(C)c4)CC3)n2)c1 , and I need its recorded Emax. 246

Field request: Emax | item: COc1ccc(-c2noc(C3CCN(C(=O)[C@@H](C)NC(=O)c4ccccc4)CC3)n2)cc1OC (single isomer, unassigned) 795

Give the measured Emax of O=C(NCC(=O)N1CCC(c2nc(-c3ccc4ccccc4n3)no2)CC1)c1ccccc1 . 631

May I ask what Emax has been recorded for COc1cccc(-c2noc(C3CCN(C(=O)CNC(=O)c4ccccc4)CC3)n2)c1 ? 600

Recorded Emax for COc1ccc(-c2noc(C3CCN(C(=O)C4CC(=O)N(c5ccc(C)c(C)c5)C4)CC3)n2)cc1 (stereo not drawn) , please? 529

Look at this molecule and give its reported Emax. CCOc1ccc(-c2noc(C3CCN(C(=O)NC4CC4c4ccccc4)CC3)n2)cc1OC (stereo not drawn) 262

If you can, please state the reported Emax value of COc1ccc(-c2noc(C3CCN(C(=O)CNc4nccc5ccccc45)CC3)n2)cc1OC . 29

Entry under review: COc1ccc(-c2noc(C3CCN(C(=O)CNC(=O)c4ccccc4)CC3)n2)cc1 . Reported Emax? 736

For the molecule shown here, COc1ccc(-c2noc(C3CCN(C(=O)C(C)NC(=O)c4ccccc4)CC3)n2)cc1OC (stereo not drawn) , give the reported Emax. 836
